EXPERIMENT DESCRIPTION: NCI Yeast Anticancer Drug Screen. Data for the cln2 rad14 strain (AID 165);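 note: 0% = growth equal to vehicle treated cultures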
EXPERIMENTAL SETUP: S. cerevisiae cln2 rad14 strain, at 50.0 µM, hits give high values
The panel holds about 79,000 compounds, 15% with a hit somewhere; the sample as a whole holds those more often.
ASSAY ENDPOINT: growth inhibition (%)
Only the number, expressed in %, is required.

Request the reported growth inhibition associated with `CCCCCC(=O)OCC(CC)CC`
-29.6

Request the reported growth inhibition associated with CC(C)CCOC(=O)C(O)C(O)C(=O)OCCC(C)C (stereo not drawn)
-39

Request the reported growth inhibition associated with `CCN(CC)c1ccc(S(=O)(=O)NC(=O)OC)cc1`
3.45

Request the reported growth inhibition associated with COc1ccc(CC(NC(=O)OCc2ccccc2)C(=O)NC2C(CO)OC(n3cnc4c(N)ncnc43)C2O)cc1 (stereo not drawn)
2.15

Request the reported growth inhibition associated with `CSc1cc2c(cc1NC(C)=O)Cc1ccccc1-2`
10.5

Request the reported growth inhibition associated with `Nc1nc(Sc2ccccn2)ccc1[N+](=O)[O-]`
-27.1

Request the reported growth inhibition associated with `CCCCCCO[Si](OCCCCCC)(OCCCCCC)OCCCCCC`
17.4

Request the reported growth inhibition associated with `CCOC(=O)c1cnc2cc3c(cc2c1Nc1cccc(C)c1C)OCO3`
-13

Request the reported growth inhibition associated with `CC(=O)Nc1ccc(Cc2ccc3[nH]c(=O)cc(C)c3c2)cc1`
5.35

Request the reported growth inhibition associated with NC(C(=O)O)C(C(F)(F)F)C(F)(F)F (stereo not drawn)
1.55

Request the reported growth inhibition associated with `O=[N+]([O-])c1cc(Cl)c(Cl)c(Cl)c1Cl`
14.8

Request the reported growth inhibition associated with `O=C(NNC(=O)c1ccc(Cl)cc1Cl)c1ccccc1`
-9.9

Request the reported growth inhibition associated with `NC(=O)NC(=O)N/N=C/c1ccccc1`
4.15

====

EXPERIMENT DESCRIPTION: NCI Yeast Anticancer Drug Screen. Data for the sgs1 mgt1 strain (AID 161);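 note: 0% = growth of cultures given vehicle only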
EXPERIMENTAL SETUP: S. cerevisiae sgs1 mgt1 strain, at 50.0 µM, hits give high values
This is part of a sample that, as a whole, favours compounds with a hit. Of some 79,000 tested, about 15% had one in any assay. The source made the active and inactive calls. No stated cut-off is given here; in the data, active means growth inhibition above about 70%; inactive means the rest.
ASSAY ENDPOINT: growth inhibition

Request the reported growth inhibition associated with CCOC(=O)C(O)(NC(C)=O)C(F)(F)F (stereo not drawn)
-0.8% (inactive)

Request the reported growth inhibition associated with CC(=O)NC(c1ccccc1)c1c(O)ccc2ccccc12 (stereo not drawn)
10.8% (inactive)

Request the reported growth inhibition associated with `CC(=O)Nc1ccc(S(=O)(=O)N/N=C/c2ccc3c(c2)OCO3)cc1`
2.55% (inactive)

Request the reported growth inhibition associated with `CCS(=O)(=O)OCCOC`
-17.1% (inactive)

Request the reported growth inhibition associated with Cc1ccc(S(=O)(=O)OCC23CCC(C4CC42)C2CC23)cc1 (stereo not drawn)
-14.8% (inactive)

Request the reported growth inhibition associated with `CCCCc1ccc(NC(=O)c2cccnc2)cc1`
36.5% (inactive)

Request the reported growth inhibition associated with CC1CCCC2(CC[N+](C)(CCC[N+](C)(C)C)CC2)C1 (stereo not drawn)
-16.2% (inactive)

Request the reported growth inhibition associated with CC(Br)CNC(=O)c1ccc([N+](=O)[O-])cc1 (stereo not drawn)
3.6% (inactive)

Request the reported growth inhibition associated with `Cc1cc(Cl)c(Cl)cc1N`
5.6% (inactive)

Request the reported growth inhibition associated with `CCOc1ccc(NC(=O)COc2ccc(Cl)cc2Cl)cc1`
23.5% (inactive)

Request the reported growth inhibition associated with `CN=C(NN)NS(=O)(=O)c1cc(C)c(Cl)cc1S`
-11.7% (inactive)

Request the reported growth inhibition associated with `C[N+]1(CCC[N+]2(C)CCC3(CCCCC3)CC2)CCOCC1`
11.2% (inactive)

Request the reported growth inhibition associated with `O=[N+]([O-])c1ccc(CCO)cc1`
-6.85% (inactive)
